Target: T1, Purified recombinant human CD26 (rhDipeptidyl peptidase IV), R&D Systems CAT #1180-SE (human, UniProt P27487 29-766)
T1 construct: Bought recombinant protein; also called hu-CD26; soluble human CD26
T1 sequence (P27487 29-766 limits assumed): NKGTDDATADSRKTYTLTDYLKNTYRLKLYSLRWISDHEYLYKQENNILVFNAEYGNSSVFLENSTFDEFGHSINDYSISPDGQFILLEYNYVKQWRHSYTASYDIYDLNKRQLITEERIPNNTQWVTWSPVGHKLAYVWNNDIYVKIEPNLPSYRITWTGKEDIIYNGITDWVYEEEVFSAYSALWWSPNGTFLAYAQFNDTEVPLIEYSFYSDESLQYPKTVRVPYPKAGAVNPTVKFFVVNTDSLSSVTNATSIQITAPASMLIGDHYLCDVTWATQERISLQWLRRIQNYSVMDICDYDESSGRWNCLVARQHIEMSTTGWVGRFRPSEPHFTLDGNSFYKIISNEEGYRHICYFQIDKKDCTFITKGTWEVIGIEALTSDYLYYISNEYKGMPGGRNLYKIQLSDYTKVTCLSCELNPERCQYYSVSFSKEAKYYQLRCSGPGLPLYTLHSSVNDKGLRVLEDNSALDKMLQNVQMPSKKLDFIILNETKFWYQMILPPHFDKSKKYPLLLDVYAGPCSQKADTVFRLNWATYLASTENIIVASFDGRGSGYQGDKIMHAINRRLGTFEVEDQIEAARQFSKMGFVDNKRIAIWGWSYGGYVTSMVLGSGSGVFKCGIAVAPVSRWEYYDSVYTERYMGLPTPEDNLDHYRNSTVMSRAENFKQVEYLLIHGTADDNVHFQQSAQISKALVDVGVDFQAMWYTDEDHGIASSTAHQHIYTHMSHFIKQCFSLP
Test: SPR (Biacore), Fab
Quantity measured: Kd (nM)
Report the figure in nM without appending any unit label.

Known Kd results, listed for orientation:
[
  {
    "Binder": "Fab comprising X381 VL and CM03 VH (Fab, V domains shown, Fab made in E. coli) VH: QVKLQESGPGLVQPSQTLSITCTVSGFSLTTYGVHWVRQSPGKGLEWLGVIWGGGRTDYDAAFISRLSISKDNSKSQVFFKMNSLQANDTAIYYCVRNRHDWFDYWGQGTTVTVSS VL: EIELTQSPSSLSVSPGDRVTISCSASQGIRNSLNWYQQKPGQAPRLLIYYSSNLHTGVPARFSGSGSGTDFTLTISRLQAEDFATYYCQQSIKLPLTFGSGTKVEIK",
    "Kd, nM": 2.1
  },
  {
    "Binder": "CM03 Fab X369 (Fab, V domains shown, Recombinant Fab made in E. coli; also called CM03 X369; CM03 (X369)) VH: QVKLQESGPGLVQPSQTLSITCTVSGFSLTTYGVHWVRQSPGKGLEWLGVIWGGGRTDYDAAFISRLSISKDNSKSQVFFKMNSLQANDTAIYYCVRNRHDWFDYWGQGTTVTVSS VL: DIQMTQSPSSLSASLGDRVTITCSASQGIRNSLNWYQQKPDGAVKLLIYYSSNLHSGVPSRFSGSGSGTDFSLTISNLEPEDIATYYCQQSIKLPFTFGSGTKLEIK",
    "Kd, nM": 1.63
  }
]

// next item, Kd requested
# Kd of Fab comprising X379 VL and CM03 VH (Fab, V domains shown, Fab made in E. coli) VH: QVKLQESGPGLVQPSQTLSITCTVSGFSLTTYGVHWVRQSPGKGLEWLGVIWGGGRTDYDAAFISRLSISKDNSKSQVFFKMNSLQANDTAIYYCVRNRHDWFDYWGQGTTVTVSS VL: DILLTQSPSSLSATPGERATITCRASQGIRNNLNWYQQKPGQAPRLLIYYSSNLQSGVPSRFSGSGSGTDFTLTISRLQPEDVAAYYCQQSIKLPFTFGSGTKVEIK = 1.16
